Source listed as ChEMBL document CHEMBL5325408.

- Target entity: UniProt P05164
- Sequence (P05164 165-273 limits assumed): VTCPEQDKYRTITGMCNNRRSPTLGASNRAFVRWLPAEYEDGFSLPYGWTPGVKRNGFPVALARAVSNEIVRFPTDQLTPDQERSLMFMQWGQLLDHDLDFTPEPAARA
- Sequence (P05164 279-745 limits assumed): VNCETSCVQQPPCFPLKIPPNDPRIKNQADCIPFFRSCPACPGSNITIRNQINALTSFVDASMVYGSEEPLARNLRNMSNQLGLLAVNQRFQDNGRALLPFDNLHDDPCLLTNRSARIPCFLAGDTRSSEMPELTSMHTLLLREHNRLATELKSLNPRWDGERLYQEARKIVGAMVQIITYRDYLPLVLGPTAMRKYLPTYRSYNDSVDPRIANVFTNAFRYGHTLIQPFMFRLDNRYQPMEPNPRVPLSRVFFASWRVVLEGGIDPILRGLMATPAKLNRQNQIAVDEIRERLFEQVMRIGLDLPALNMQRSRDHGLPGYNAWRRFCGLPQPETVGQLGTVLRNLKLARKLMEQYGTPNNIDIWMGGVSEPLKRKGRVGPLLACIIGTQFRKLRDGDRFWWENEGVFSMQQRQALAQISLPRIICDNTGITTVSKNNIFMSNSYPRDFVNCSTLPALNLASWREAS
- Test method notes: Inhibition of human MPO using taurine as substrate assessed as reduction in substrate chlorination at 20 uM incubated for 30 mins by taurine-chloramine assay relative to control
Test readout: inhibition (%)

>  <Test smiles>
Cc1ccc(NC(=O)Cn2c(Cl)nc3ccccc32)cc1

>  <Test readout>
inhibition

>  <Experimental result>
36.5

$$$$
>  <Test smiles>
COc1cccc(NC(=O)CSc2nc3ccccc3[nH]2)c1

>  <Test readout>
inhibition

>  <Experimental result>
61.4

$$$$
>  <Test smiles>
Cc1ccc(NC(=O)Cn2c(S)nc3ccccc32)cc1

>  <Test readout>
inhibition

>  <Experimental result>
41.1

$$$$
>  <Test smiles>
O=C(CSc1nc2ccccc2[nH]1)Nc1cccc([N+](=O)[O-])c1

>  <Test readout>
inhibition

>  <Experimental result>
62.3

$$$$
>  <Test smiles>
O=C(Cn1c(=S)[nH]c2ccccc21)NCc1ccccc1

>  <Test readout>
inhibition

>  <Experimental result>
95.3

$$$$

P. O=C(Cn1c(Cl)nc2ccccc21)Nc1ccc(Cl)cc1
Q. CCOC(=O)Cn1c(Cl)nc2ccccc21
When the recorded inhibition values are compared, which is smaller: that of P or that of Q ? Answer with the label corresponding to your selection.
Q

1. O=C(Cn1c(Cl)nc2ccccc21)NCc1ccccc1
2. O=C(Cn1c(Cl)nc2ccccc21)Nc1cccc([N+](=O)[O-])c1
3. O=C(Cn1c(=S)[nH]c2ccccc21)Nc1ccccc1Cl
Sort (3 compounds) by inhibition: min first. The response must list the labels following the requested ordering.
1, 2, 3
(1: 24.9%, 2: 44%, 3: 89.4%)

1. O=C(CSc1nc2ccccc2[nH]1)Nc1ccc(Cl)cc1
2. O=C(Cn1c(Cl)nc2ccccc21)Nc1ccccc1
3. O=C(Cn1c(=S)[nH]c2ccccc21)Nc1ccccc1
Rank items: key inhibition, increasing. Please, when replying, give the labels in the order that was requested.
2, 1, 3
(2: 27.9%, 1: 52.6%, 3: 91.9%)

---

- Target entity: Myeloperoxidase (Homo sapiens)
- Test method notes: Inhibition of human MPO using taurine as substrate assessed as reduction in substrate chlorination at 20 uM incubated for 30 mins by taurine-chloramine assay relative to control
Test readout: inhibition (%)

The examples below pair each entry with its known result.
>  <Test smiles>
O=C(Cn1c(Cl)nc2ccccc21)Nc1ccccc1[N+](=O)[O-]

>  <inhibition (%)>
31.8

$$$$
>  <Test smiles>
O=C(CSc1nc2ccccc2[nH]1)Nc1ccc([N+](=O)[O-])cc1

>  <inhibition (%)>
62.1

$$$$

a. COc1ccccc1NC(=O)CSc1nc2ccccc2[nH]1
b. O=C(CSc1nc2ccccc2[nH]1)Nc1ccccc1
c. Cc1ccccc1NC(=O)Cn1c(Cl)nc2ccccc21
Please order the records by their reported inhibition, lowest number first. Give the labels in the order requested.
c, b, a
(c: 28.5%, b: 50%, a: 72.6%)

I. COc1ccccc1NC(=O)Cn1c(Cl)nc2ccccc21
II. COc1ccccc1NC(=O)Cn1c(=S)[nH]c2ccccc21
III. COc1cccc(NC(=O)Cn2c(=S)[nH]c3ccccc32)c1
Task field, ranking: reported inhibition, descending order. Labels, ranked as asked.
II, III, I

A. O=C(Cn1c(Cl)nc2ccccc21)Nc1cccc(Cl)c1
B. O=C(CSc1nc2ccccc2[nH]1)N1CCCCC1
Between A and B , whose measured inhibition reads higher? Write the label of whichever entry you select.
A

I. NNC(=O)Cn1c(=S)[nH]c2ccccc21
II. O=C(CSc1nc2ccccc2[nH]1)Nc1cccc(Cl)c1
Looking at I and II , which one comes out lower in inhibition terms? Refer to your chosen item by its label in the answer.
II
(II: 56.1%, I: 93.2%)
